This collection of values is drawn from patent US6143769A.

testProtocol: clinical
appliedConditions: human, plasma, po, 1 mg
measuredQuantity: concentration at 1.5 h (ng/mL)
Numbers only; they are read as ng/mL.

Quick check: concentration at 1.5 h of CCOc1cc(CC(=O)NC(CC(C)C)c2ccccc2N2CCCCC2)ccc1C(=O)O (racemic) ?
30.8

----------
testProtocol: clinical
appliedConditions: human, plasma, po, 1 mg
measuredQuantity: concentration at 1 h (ng/mL)
Write down the numeric answer in ng/mL and omit the unit.

// returns reported concentration at 1 h for input CCOc1cc(CC(=O)N[C@@H](CC(C)C)c2ccccc2N2CCCCC2)ccc1C(=O)O [AG-EE 623 ZW]
15.3
